Where do the numbers come from? From ChEMBL document CHEMBL4689842.

Measured Population Mitotic Cells (%), listed per entry for reference.
Test system: Fibroblast
Test: Multiplex assay against human fibroblast
Type: toxicity, cell-based
Conditions: 24 h, 10 µM, compound concentration 10 uM, replicate 2
Please state the figure in %; there is no need to write the unit.

Past entries and their recorded results:
{"columns": ["COMPOUND", "SYSTEM_UNDER_TEST", "Population Mitotic Cells (%)"],
 "data": [
  ["CC(C)c1cc(Nc2nc(N3CCC[C@H](N)C3)ncc2C(N)=O)cc(C(C)C)n1", "Fibroblast", 16],
  ["Cl.NC[C@@H]1O[C@H](C23CC4CC(CC(C4)C2)C3)Cc2c1ccc(O)c2O", "Fibroblast", 7],
  ["Cc1ccc(S(=O)(=O)NC2c3ccccc3Oc3ccccc32)cc1", "Fibroblast", 0],
  ["N#CCNC(=O)c1ccc(-c2ccnc(Nc3ccc(N4CCOCC4)cc3)n2)cc1 [MOMELOTINIB]", "Fibroblast", 54]
]}

Now turn to the next compound.
Challenge: Annotate the compound C[C@@H](Oc1cc(-n2cnc3ccc(CN4CCN(C)CC4)cc32)sc1C(N)=O)c1ccccc1C(F)(F)F [GSK-461364] with its measured Population Mitotic Cells (%).
Response given: 17

###

Measured Population Fragmented Nuclei (%), listed per entry for reference.
Test system: Fibroblast
Test: Multiplex assay against human fibroblast
Format: toxicity, cell-based
Conditions: 12 h, 10 µM, compound concentration 10 uM, replicate 2
Please state the figure in %; there is no need to write the unit.

Past entries and their recorded results:
{"columns": ["COMPOUND", "NUMERIC_READOUT"],
 "data": [
  ["Cc1c(Nc2ccc(S(=O)(=O)N3CCN(C)CC3)cc2F)nc2ccc(Nc3cnn(C4CC4)c3)cn2c1=O", 55],
  ["Oc1cccc(-c2nc(N3CCOCC3)c3oc4ncccc4c3n2)c1", 18],
  ["Cl.Cn1c2c(c3ccc(Cl)c(Cl)c31)C(C#N)C1(CCNCC1)NC2=O (configuration not stated)", 48],
  ["N#CCNC(=O)c1ccc(-c2ccnc(Nc3ccc(N4CCOCC4)cc3)n2)cc1", 27]
]}

Now turn to the next compound.
Challenge: Annotate the compound CC(C)c1cc(Nc2nc(N3CCC[C@H](N)C3)ncc2C(N)=O)cc(C(C)C)n1 with its measured Population Fragmented Nuclei (%).
Response given: 19

###

Tested on: U2OS
Experiment: Multiplex assay against U2OS
Type: toxicity, cell-based
Conditions: human, 48 h, 10 µM, compound concentration 10 uM, replicate 2
QUANTITY_MEASURED: Population Hoechst High Intensity Objects (%)
Please state the figure in %; there is no need to write the unit.

{"columns": ["SMILES_REPRESENTATION", "SYSTEM_UNDER_TEST", "NUMERIC_READOUT"],
 "data": [
  ["Cc1c(P(=S)(c2ccccc2)c2ccccc2)n2ccccc2[n+]1C/C=C/c1ccccc1.[Br-]", "U2OS", 21],
  ["Oc1cccc(-c2nc(N3CCOCC3)c3oc4ncccc4c3n2)c1", "U2OS", 12],
  ["CN(c1cc(C(F)(F)F)nc(OCCC(=O)O)n1)c1cccc2c1CCC2", "U2OS", 6],
  ["Cc1ccc(S(=O)(=O)NC2c3ccccc3Oc3ccccc32)cc1", "U2OS", 4]
]}

Now turn to the next molecule.
Challenge: Annotate the molecule N#Cc1cccc(C(=O)Nc2cc(-c3ccccc3)nn2-c2ccccc2)c1 with its measured Population Hoechst High Intensity Objects (%).
Response given: 11

###

Test system: U2OS
Assay: Multiplex assay against U2OS
Assay type: toxicity, cell-based
Details: human, 24 h, 10 µM, compound concentration 10 uM, replicate 2
Measured Population Mitochondria Different-Phenotype (%), listed per entry for reference.

Past entries and their recorded results:
{"columns": ["SMILES_REPRESENTATION", "RESULT"],
 "data": [
  ["Cc1ccc(NC(=O)Nc2cc(C(F)(F)F)ccc2F)cc1Nc1ccc2c(c1)NC(=O)/C2=C\\c1ccc[nH]1", "32%"],
  ["N#CCNC(=O)c1ccc(-c2ccnc(Nc3ccc(N4CCOCC4)cc3)n2)cc1", "34%"],
  ["CC(/C=C1\\SC(=S)N(CCCC(=O)Nc2ccc(C(=O)O)c(O)c2)C1=O)=C\\c1ccccc1", "14%"]
]}

Now turn to the next compound.
Challenge: Annotate the compound CC[C@H](Nc1ncnc2[nH]cnc12)c1nc2cccc(F)c2c(=O)n1-c1ccccc1 with its measured Population Mitochondria Different-Phenotype (%).
Response given: 30%

###

Measured Population Mitotic Cells (%), listed per entry for reference.
Tested on: HEK-293T
Assay: Multiplex assay against HEK293T
Type: toxicity, cell-based
Conditions: human, 48 h, 10 µM, compound concentration 10 uM, replicate 1
Please state the figure in %; there is no need to write the unit.

{"columns": ["COMPOUND", "Population Mitotic Cells (%)"],
 "data": [
  ["CCCCCNC(=N)N/N=C/c1c[nH]c2ccc(OC)cc12.O=C(O)/C=C\\C(=O)O [TEGASEROD MALEATE]", 41],
  ["CC(Cc1ccc(O)c(O)c1)C(C)Cc1ccc(O)c(O)c1 (stereo not drawn) [NORDIHYDROGUAIARETIC ACID]", 78],
  ["Cc1c(P(=S)(c2ccccc2)c2ccccc2)n2ccccc2[n+]1C/C=C/c1ccccc1.[Br-]", 34],
  ["Cc1c(Nc2ccc(S(=O)(=O)N3CCN(C)CC3)cc2F)nc2ccc(-c3cnn(C4CC4)c3)cn2c1=O", 55],
  ["N#Cc1cccc(C(=O)Nc2cc(-c3ccccc3)nn2-c2ccccc2)c1", 46],
  ["CC(/C=C1\\SC(=S)N(CCCC(=O)Nc2ccc(C(=O)O)c(O)c2)C1=O)=C\\c1ccccc1", 50],
  ["N#CCNC(=O)c1ccc(-c2ccnc(Nc3ccc(N4CCOCC4)cc3)n2)cc1 [MOMELOTINIB]", 62],
  ["c1ccc(-c2oc3ncnc(NC[C@@H]4CCCO4)c3c2-c2ccccc2)cc1", 29]
]}

Challenge: Annotate the compound C=CC(=O)Nc1cc(-n2c(=O)ccc3cnc4ccc(-c5ccc(NS(C)(=O)=O)cc5)cc4c32)ccc1C with its measured Population Mitotic Cells (%).
Response given: 47

Challenge: Annotate the compound CC(C)c1cc(Nc2nc(N3CCC[C@H](N)C3)ncc2C(N)=O)cc(C(C)C)n1 with its measured Population Mitotic Cells (%).
Response given: 28

Challenge: Annotate the compound CCCCN(CC)c1nc(C)nc2c1c(C)cn2-c1c(C)cc(C)cc1C.Cl with its measured Population Mitotic Cells (%).
Response given: 50

Challenge: Annotate the compound Oc1cccc(-c2nc(N3CCOCC3)c3oc4ncccc4c3n2)c1 [PI-103] with its measured Population Mitotic Cells (%).
Response given: 44

Challenge: Annotate the compound CN1CCN(Cc2ccc(-c3cnc4[nH]cc(-c5ccc6[nH]ccc6c5)c4c3)cc2)CC1 with its measured Population Mitotic Cells (%).
Response given: 9

###

Measured Total Cell Count, listed per entry for reference.
System: U2OS
Assay: Multiplex assay against U2OS
Assay type: toxicity, cell-based
Settings: human, 12 h, 1 µM, compound concentration 1 uM, replicate 2
Provide a numeric answer; units are not to be included.

{"columns": ["COMPOUND", "Total Cell Count"],
 "data": [
  ["CN1C(=O)[C@@H](NC(=O)c2cc3ccccc3[nH]2)N=C(c2ccccc2)c2ccccc21 [DEVAZEPIDE]", 68],
  ["CCCCN(CC)c1nc(C)nc2c1c(C)cn2-c1c(C)cc(C)cc1C.Cl", 95]
]}

Challenge: Annotate the compound Oc1cccc(-c2nc(N3CCOCC3)c3oc4ncccc4c3n2)c1 [PI-103] with its measured Total Cell Count.
Response given: 73

Challenge: Annotate the compound N#CCNC(=O)c1ccc(-c2ccnc(Nc3ccc(N4CCOCC4)cc3)n2)cc1 [MOMELOTINIB] with its measured Total Cell Count.
Response given: 3119

Challenge: Annotate the compound Cl.NC[C@@H]1O[C@H](C23CC4CC(CC(C4)C2)C3)Cc2c1ccc(O)c2O with its measured Total Cell Count.
Response given: 95

Challenge: Annotate the compound CCOC(=O)CCNc1cc(N2CCc3ccccc3CC2)nc(-c2ccccn2)n1 with its measured Total Cell Count.
Response given: 141

Challenge: Annotate the compound Cc1c(Nc2ccc(S(=O)(=O)N3CCN(C)CC3)cc2F)nc2ccc(-c3cnn(C4CC4)c3)cn2c1=O with its measured Total Cell Count.
Response given: 119

Challenge: Annotate the compound C=CC(=O)Nc1cc(-n2c(=O)ccc3cnc4ccc(-c5ccc(NS(C)(=O)=O)cc5)cc4c32)ccc1C with its measured Total Cell Count.
Response given: 53

Challenge: Annotate the compound NC(=O)c1ccc2nc(-c3ccc(C4(N)CCC4)cc3)c(-c3ccccc3)n2n1 [BAY-1125976] with its measured Total Cell Count.
Response given: 109

###

Measured Total Cell Count, listed per entry for reference.
Tested on: U2OS
Assay: Multiplex assay against U2OS
Format: toxicity, cell-based
Settings: human, 48 h, 1 µM, compound concentration 1 uM, replicate 1
Provide a numeric answer; units are not to be included.

Past entries and their recorded results:
{"columns": ["COMPOUND", "SYSTEM_UNDER_TEST", "Total Cell Count"],
 "data": [
  ["CCCCN(CC)c1nc(C)nc2c1c(C)cn2-c1c(C)cc(C)cc1C.Cl", "U2OS", 253],
  ["CC(/C=C1\\SC(=S)N(CCCC(=O)Nc2ccc(C(=O)O)c(O)c2)C1=O)=C\\c1ccccc1", "U2OS", 142],
  ["Cl.NC[C@@H]1O[C@H](C23CC4CC(CC(C4)C2)C3)Cc2c1ccc(O)c2O", "U2OS", 198],
  ["CN1C(=O)[C@@H](NC(=O)c2cc3ccccc3[nH]2)N=C(c2ccccc2)c2ccccc21 [DEVAZEPIDE]", "U2OS", 231],
  ["Cc1ccc(S(=O)(=O)NC2c3ccccc3Oc3ccccc32)cc1", "U2OS", 429],
  ["N#CCNC(=O)c1ccc(-c2ccnc(Nc3ccc(N4CCOCC4)cc3)n2)cc1 [MOMELOTINIB]", "U2OS", 3211],
  ["Oc1cccc(-c2nc(N3CCOCC3)c3oc4ncccc4c3n2)c1 [PI-103]", "U2OS", 222],
  ["Cc1c(P(=S)(c2ccccc2)c2ccccc2)n2ccccc2[n+]1C/C=C/c1ccccc1.[Br-]", "U2OS", 277]
]}

Now turn to the next compound.
Challenge: Annotate the compound C=CC(=O)Nc1cc(-n2c(=O)ccc3cnc4ccc(-c5ccc(NS(C)(=O)=O)cc5)cc4c32)ccc1C with its measured Total Cell Count.
Response given: 360
